Target: melibiose permease MelBSt (WT) (Salmonella enterica)
Sequence (P30878 whole entry): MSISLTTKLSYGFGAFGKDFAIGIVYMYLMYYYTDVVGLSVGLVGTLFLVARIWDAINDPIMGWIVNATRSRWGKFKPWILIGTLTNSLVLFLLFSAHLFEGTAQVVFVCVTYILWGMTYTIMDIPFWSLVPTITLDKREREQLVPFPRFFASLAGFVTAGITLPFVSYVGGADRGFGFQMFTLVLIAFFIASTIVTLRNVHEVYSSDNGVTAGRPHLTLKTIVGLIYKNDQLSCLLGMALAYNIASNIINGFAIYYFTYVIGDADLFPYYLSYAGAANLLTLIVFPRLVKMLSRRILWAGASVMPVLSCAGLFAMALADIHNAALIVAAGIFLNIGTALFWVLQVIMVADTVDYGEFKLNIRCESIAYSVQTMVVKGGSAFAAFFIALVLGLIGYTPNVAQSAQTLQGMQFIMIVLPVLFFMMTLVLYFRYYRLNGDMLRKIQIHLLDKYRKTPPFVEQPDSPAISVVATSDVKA
Test: ITC, […] NaCl, […] °C
Format: binding
Design: gene melB; WT MelBSt/CHis10
quantity kind: pKd
Give bare numbers, as −log10 of the molar value.

Exercise: For the compound CO[C@H]1O[C@H](CO)[C@H](O)[C@H](O)[C@H]1O [α-MG, methyl α-D-galactoside] , what pKd is on record?
Solution: 3.06
